Data provenance: ChEMBL document CHEMBL3580640

assay: Cmax in po dosed rat; assay type: ADME, organism-based; parameters: route oral; settings: in vivo
quantity-kind: Cmax (ng/mL)

INSERT INTO measurements (query_smiles, quantity_kind, numeric_result) VALUES
  ('CS(=O)(=O)Nc1cccc(CC(=O)Nc2cc(-c3ccnc(F)c3)cs2)c1', 'Cmax', 3200);

* * *

tested on: Rattus norvegicus; experiment: Clearance in iv dosed rat; format: ADME, organism-based; details: in vivo
quantity-kind: clearance (mL/min/kg)

INSERT INTO assay_data (query_smiles, quantity_kind, unit, numeric_result) VALUES
  ('CS(=O)(=O)Nc1cccc(CC(=O)Nc2cc(-c3ccnc(F)c3)cs2)c1', 'clearance', 'mL/min/kg', 3.45);

* * *

test: Cmax in iv dosed rat; format: ADME, organism-based; parameters: route intravenous; conditions: in vivo
quantity-kind: Cmax (ng/mL)

INSERT INTO results (query_smiles, numeric_result) VALUES
  ('CS(=O)(=O)Nc1cccc(CC(=O)Nc2cc(-c3ccnc(F)c3)cs2)c1', 2920);

* * *

experiment: AUC in iv dosed rat; format: ADME, organism-based; details: in vivo
quantity-kind: AUC

INSERT INTO assay_data (query_smiles, quantity_kind, result) VALUES
  ('CS(=O)(=O)Nc1cccc(CC(=O)Nc2cc(-c3ccnc(F)c3)cs2)c1', 'AUC', '4310 ng·h/mL');

* * *

assay: Tmax in po dosed rat; type: ADME, organism-based; details: in vivo
quantity-kind: Tmax (h)

INSERT INTO measurements (query_smiles, numeric_result) VALUES
  ('CS(=O)(=O)Nc1cccc(CC(=O)Nc2cc(-c3ccnc(F)c3)cs2)c1', 3);
